Tested on: D425 medulloblastoma cells
Test: D425 cell viability / proliferation (CellTiter-Glo)
Format: cell-based
Details: Medulloblastoma cell; 48 hours treatment, CellTiter-Glo; read-out: IC50 for D425 cell growth
// returns False unless IC50 is strictly below 7 µM, in which case True

Sample answers from the record:
Q) Lab note: confirm whether the reported IC50 for this compound is below 7 µM, equality not counting. compound: O=S(=O)(NC1CCOC(C(c2ccccc2)c2ccccc2)C1)c1ccc(OC(F)(F)F)cc1 (stereo not shown)
A) False

Q) Is the reported IC50 for O=S(=O)(N[C@H]1CCO[C@@H](C2c3ccccc3CCc3ccccc32)C1)c1ccc(OC(F)(F)F)cc1 (single isomer, unassigned) strictly below 7 µM?
A) True

Q) Does the reported IC50 of the following compound sit strictly below 7 µM? O=S(=O)(NC1CCOC(C2c3ccccc3CCc3ccccc32)C1)c1ccc(OC(F)(F)F)cc1 (racemic)
A) False

Q) Please let me know if O=S(=O)(NC1CCOC(C2c3ccccc3CCc3ccccc32)C1)c1ccc(Cl)cc1 (stereo not shown) shows IC50 below 7 µM.
A) True

Q) Below 7 µM on IC50? Entry O=S(=O)(NC1CCOC(C(c2ccc(F)cc2)c2ccc(F)cc2)C1)c1ccc(OC(F)(F)F)cc1 (stereo not shown)
A) False

Further cases:
Q) Lab note: confirm whether the reported IC50 for this compound is below 7 µM, equality not counting. compound: Cc1ccc(S(=O)(=O)NC2CCOC(C3c4ccccc4CCc4ccccc43)C2)cc1 (stereo not shown)
A) False

Q) Check if IC50 falls below 7 µM for O=S(=O)(NC1CCOC(C2c3ccccc3CCc3ccccc32)C1)c1cccc(C(F)(F)F)c1 (stereo not shown) .
A) True
